Attribution: PubChem BioAssay (NCI)

test system: OVCAR-3 ovarian; experiment: NCI tumour cell line growth inhibition, 48 h
Assay Endpoint: TGI

1) CCCCN[C@H]1C2C3CC4C5CC(C42)C1(C)C53 (some centres undefined)    > 100 µM
2) O=c1[nH]nc(Cn2c3ccc(Br)cc3c3nc4ccccc4nc32)n1C1CCCCC1    > 100 µM
3) CCOC(=O)c1c(C)nc2c(c1N)CC(=O)N2CCc1ccccc1    13.3 µM
4) CCOc1ccc(N=NS(=O)(=O)O)cc1    > 100 µM
5) C[C@]1(Cn2ccnn2)C(C(=O)O)N2C(=O)CC2S1(=O)=O (some centres undefined)    > 100 µM
6) Cc1ccc(C(O)(c2ccc(C)cc2)c2ccccn2)cc1    > 100 µM
7) Clc1ccc(-c2ccc(-c3nnc(COc4ccc(OCc5nnc(-c6ccc(-c7ccc(Cl)cc7Cl)o6)o5)c(Cl)c4)o3)o2)c(Cl)c1    > 100 µM
8) Nc1nc(N)c2c(n1)NC(c1ccccc1)C1CCc3ccccc3C1=N2 (centres undefined)    15.4 µM
9) Oc1ccc(CCNCc2cc3c(cc2Br)OCO3)cc1    > 100 µM
